# system: T1, Nipah virus Malaysia strain glycoprotein G (Nipah virus, Malaysia strain (NiV-MY), UniProt Q9IH62 71-602)
# T1 sequence: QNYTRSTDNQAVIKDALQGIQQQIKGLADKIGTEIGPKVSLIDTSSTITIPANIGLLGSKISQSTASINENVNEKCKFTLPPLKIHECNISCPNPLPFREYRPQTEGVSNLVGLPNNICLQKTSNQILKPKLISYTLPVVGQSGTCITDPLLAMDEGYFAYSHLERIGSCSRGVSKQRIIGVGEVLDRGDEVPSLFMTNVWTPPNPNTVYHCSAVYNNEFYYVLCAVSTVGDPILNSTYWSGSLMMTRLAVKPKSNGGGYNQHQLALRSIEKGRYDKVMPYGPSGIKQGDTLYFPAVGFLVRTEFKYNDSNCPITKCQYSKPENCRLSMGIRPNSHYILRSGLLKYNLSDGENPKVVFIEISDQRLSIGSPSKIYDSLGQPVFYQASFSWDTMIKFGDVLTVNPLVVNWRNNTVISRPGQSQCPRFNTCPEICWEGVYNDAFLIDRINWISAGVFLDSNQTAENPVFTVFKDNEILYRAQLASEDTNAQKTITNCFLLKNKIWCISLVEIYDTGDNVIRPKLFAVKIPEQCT
# assay-comment: ELISA, G protein coated at 1 µg/mL, antibody 1:3 dilutions from 20 µg/mL
endpoint-label: EC50 (µg/mL)
Numeric answer only, unit µg/mL assumed.

Consider the reported EC50 for these binders:
- binder: "1B6 (antibody, V domains shown) VH: VQLQESGPGPVKPSETLSLTCTVSGGSMSRGYDWNWIRQPPGKGLEWIGYIGDDGGRSNYNPSLKSRVTISKDSSKNQFSLKLGSVSAADTAVYYCARALRAIWYNSGWFYNSLDVWGRGVLVTVSS VL: DIVLTQSPASLAVSPGQRATITCRASEGVSVFGRDLIHWYQQKPGQPPKLLIYQTSNRDTGVPARFSGSGSGTDFTLTINPVEADDAADYYCLQSKNSYSFGQGTKVEIKT"
  units-symbol: "µg/mL"
  EC50: 0.0639
- binder: "1E5 (antibody, V domains shown) VH: VQLQESGPGVVKPSETLSLTCAVSGGSISDTYRWSWIRQPPGKGLEWIGYIYGSATSTYYNPSLSSRVTISKDMSKNQFSLNLNSVTAADTAVYYCARDYQYYYSGSYPTPHNWFDVWGPGVLVTVSS VL: DIQMTQSPSSLSASVGDRVTITCRASQGIIDYLSWYQQKPGKAPKLLISTASNLESGVPSRFSGSGSGTEFTLTISSLQPEDFATYSCLQGYTTPYTFGQGTKVEIKT"
  units-symbol: "µg/mL"
  EC50: 0.00085
- binder: "2E7 (antibody, V domains shown, copies: 2 + 2) VH: VQLQESGPGLVKPSETLSLTCSVSGGSISISNWWSWIRQSPGKGLEWIGYIYGSSGSTLYNPSLKSRVSISTDTSKNQFSLKLRSVTAADTAVYYCASPSIAATGDFDYWGQGVLVTVSS VL: QSVLTQPPSASGAPGQSVTISCSGSSSNIGGNNVYWYQQLPGTAPKLLIYSSNQRPSGVPDRFSGSKSGTSASLAITGLRSEDEADYFCAVWDDSLGSPFFGGGTRLTVLR"
  units-symbol: "µg/mL"
  EC50: 0.0267

Okay, now this binder:
Quote EC50 reported for 2A4 (antibody, V domains shown) VH: QVQLQESGPGLVKPSETLSLTCPVSGASISSHWWTWIRQPPGKGLEWIGEIHGNSGSTNYNPSLKSRVTISKDASKNHFSLKLSSVTAADTAVYYCARDGHLGILVVFATSRFDVWGPGVLVTVSS VL: DIQMTQSPSSLSASVGDTVTITCQASQGIANNLNWYQQKPGKAPKLLIYRASSLQSGIPSRFSGSGSGTDYTLTISSLQPEDFATYYCQQGYTYPRTFGQGTKVEIKT please.
0.0112
